Origin of values: ChEMBL document CHEMBL1275577

tested on: Bacteroides fragilis; assay: Antimicrobial activity against Bacteroides fragilis by Wadsworth agar dilution method; assay type: functional
Form field: MIC90 (one value per entry).
Please give a number only; it is taken to be in mg/L.

Input line: Suppose we examine the compound CC(=O)Oc1ccccc1C(=O)Nc1ncc([N+](=O)[O-])s1 [NITAZOXANIDE] ; what MIC90 value has been reported?
Output line: 4

Input line: What measured MIC90 goes with CN[C@H](CC(C)C)C(=O)N[C@H]1C(=O)N[C@@H](CC(N)=O)C(=O)N[C@H]2C(=O)N[C@H]3C(=O)N[C@H](C(=O)N[C@H](C(=O)O)c4cc(O)cc(O)c4-c4cc3ccc4O)[C@H](O)c3ccc(c(Cl)c3)Oc3cc2cc(c3O[C@@H]2O[C@H](CO)[C@@H](O)[C@H](O)[C@H]2O[C@H]2C[C@](C)(N)[C@H](O)[C@H](C)O2)Oc2ccc(cc2Cl)[C@H]1O [VANCOMYCIN] ?
Output line: 128
